Attribute: polymerase ribozyme fitness (log ratio)
B1: TPR 5TU (parent)
chain: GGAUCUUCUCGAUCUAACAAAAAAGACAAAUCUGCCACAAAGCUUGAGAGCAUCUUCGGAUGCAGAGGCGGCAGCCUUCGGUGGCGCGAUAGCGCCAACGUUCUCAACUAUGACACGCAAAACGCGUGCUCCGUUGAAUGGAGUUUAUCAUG

Variants of: B1
Test: polymerase ribozyme fitness, log enrichment relative to wild type (log ratio); higher = more active; in vitro selection for triplet polymerase activity
Fewer inactive variants are shown than the library holds.
I'd appreciate a reply containing only the number, no unit.

# variantLabel, polymerase ribozyme fitness (log ratio)
rows = [
    ("C76U G94A C105U", -0.337),
    ("C96A G152U", -2.51),
    ("C38A A122U A137G G141U A142G", -3.83),
    ("A12G A98U", -0.71),
    ("A19C U44A", -3.87),
]

// lookup polymerase ribozyme fitness (log ratio) for G62U A73U
-3.59

// lookup polymerase ribozyme fitness (log ratio) for C10U C116U A147C
-3.39

// lookup polymerase ribozyme fitness (log ratio) for A73G G83A
-1.72

// lookup polymerase ribozyme fitness (log ratio) for A24U A52U C118G A142U
-3.54

// lookup polymerase ribozyme fitness (log ratio) for A19G U82G G124A G140C
-3.62

// lookup polymerase ribozyme fitness (log ratio) for U56A C76A A119U A121C G126U
-1.11

// lookup polymerase ribozyme fitness (log ratio) for C5G U144G
0.355

// lookup polymerase ribozyme fitness (log ratio) for C63U U104G
0.272

// lookup polymerase ribozyme fitness (log ratio) for C14U C118U
-1.65

// lookup polymerase ribozyme fitness (log ratio) for C10U C75U G84A U145A
-4.08

// lookup polymerase ribozyme fitness (log ratio) for A19U G81C C85U U145A
-0.303

// lookup polymerase ribozyme fitness (log ratio) for G124A G140C
-3.89

// lookup polymerase ribozyme fitness (log ratio) for U6G G50U C95U
0.0133

// lookup polymerase ribozyme fitness (log ratio) for A22U G59A
-0.47

// lookup polymerase ribozyme fitness (log ratio) for A19U G59A G83U U139G
-1.28

// lookup polymerase ribozyme fitness (log ratio) for U31G C35U A60U A115G
-3.22

// lookup polymerase ribozyme fitness (log ratio) for C51U A52C U82G U135G
-3.54
